Values were extracted from the OPERA property sets (Mansouri et al. 2018).

# melting point binned as low end = under 1 °C, middle = from 1 °C up to 100 °C, high end = 100 °C and over

[
  {
    "compound": "C[C@H](Oc1ccc(Oc2nc3ccc(Cl)cc3o2)cc1)C(=O)O",
    "labelValue": "high end"
  }
]

Enquiry: Each compound maps to one class by melting point. Which class for CN(C)C1=NC(=O)C(c2ccccc2)O1 (stereo not drawn) ?
Return: high end

Enquiry: Band for Clc1cccc(Cl)c1N=C1NCCN1 ?
Return: high end

Enquiry: Tag the class for ClC(Cl)(Br)C(Cl)(Cl)Br
Return: high end

Enquiry: Which band does Clc1cccc(Cl)c1 fall in?
Return: low end

Enquiry: Band of c1ccc2[nH]ccc2c1 ?
Return: middle

Enquiry: Input CC(CO)CO ; output its category
Return: low end

Enquiry: Looking at O=C(c1ccccc1)c1cccs1 , which class would you pick?
Return: middle

Enquiry: Textbook exercise: identify the category of the compound given here, COc1ccc(C(=O)c2ccccc2)cc1 , according to its measured value.
Return: middle

Enquiry: Lab log: Cc1cc2nc[nH]c2cc1C — assign melting point category
Return: high end

Enquiry: Quick check: band for CC(O)(c1ccc(Cl)cc1)c1ccc(Cl)cc1
Return: middle

Enquiry: For the record CCCI , report the class its melting point corresponds to.
Return: low end

Enquiry: Place this compound in its band: CC(C)(C)NCC(O)c1ccc(O)c(CO)c1 (stereo not drawn)
Return: high end

Enquiry: Bin? FC(F)(F)CCl
Return: low end

Enquiry: Hey, which category is FC(F)(F)N1C(F)(F)C(F)(F)OC(F)(F)C1(F)F in, do you know?
Return: low end

Enquiry: Band of COc1ccc(C(=O)c2ccccc2O)c(O)c1 ?
Return: middle
